These entries and their values trace back to patent US10336721B2.

- target or system: human MIF (Homo sapiens (Human))
- Sequence (P14174 2-115): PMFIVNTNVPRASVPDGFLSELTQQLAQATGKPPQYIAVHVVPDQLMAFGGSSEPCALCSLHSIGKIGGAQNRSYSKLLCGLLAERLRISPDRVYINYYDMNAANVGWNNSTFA
- experiment notes: Inhibition of tautomerase activity of human MIF (HPP substrate)
- Format: biochemical
- measurement parameters: read-out: % inhibition at 10 μM
observation type: inhibition at 10 µM (%)

>>> val("Oc1ccc(-n2cc(-c3ccc4cccc(Cl)c4n3)nn2)cc1 [Example 13]")
16
>>> val("COCCOc1ccc2nc(-c3cn(-c4ccc(C(N)=O)cc4)nn3)ccc2c1 [Example 8]")
0
>>> val("COCCOc1ccc2nc(-c3cn(-c4ccc(N)cc4)nn3)ccc2c1 [Example 5]")
13
>>> val("COCCOc1ccc2nc(-c3cn(-c4ccc(O)c(OC)c4)nn3)ccc2c1 [Example 10]")
8
>>> val("COc1ccc(-c2cccc3ccc(-c4cn(-c5ccc(O)cc5)nn4)nc23)cc1 [Example 16]")
21

(A) COCCOc1ccc2nc(-c3cn(-c4ccc(OC)cc4)nn3)ccc2c1 [Example 6]
(B) COCCOc1ccc2nc(-c3cn(-c4ccc(O)c(C)c4)nn3)ccc2c1 [Example 9]
(C) Clc1ccc(-n2cc(-c3ccc4cccnc4n3)nn2)cc1 [Example 27]
(D) COCCOc1ccc(-c2cn(-c3ccc(Cl)cc3)nn2)nc1 [Example 4]
Hey, quick one: sort these by inhibition at 10 µM, low to high? Would you mind listing the labels in the order asked for?
A, D, C, B
